Source of measurements: patent US12485121B2

- Tested on: HIV-1 subtype A strain 12RU 69831
- Protocol Description: Inhibition of HIV-1 reproduction / protection of infected MT-4 cells (living cell concentration, p24 production)
- Type: cell-based
- Assay Context: Human immunodeficiency virus 1, MT4, MT-4 cells infected with HIV-1 at a constant virus dose of 300 CCID50; read-out: Activity against HIV-1 12RU 69831 strain (subtype A)
Result Type: IC50 (µM)

INSERT INTO measurements (compound, measurement) VALUES
  ('Cc1cc(C#N)cc(C)c1Oc1nc(Nc2ccc(C#N)cc2)nc2c1CN(C(=O)C1CNC1)CC2', 0.152),
  ('Cc1cc(C#N)cc(C)c1Oc1nc(Nc2ccc(C#N)cc2)nc2c1CN(C(=O)[C@H](NC(=O)OC(C)(C)C)C(C)C)CC2', 45.3),
  ('Cc1cc(C#N)cc(C)c1Oc1nc(Nc2ccc(C#N)cc2)nc2c1CCN(C(=O)[C@@H]1CCCN1C(=O)OC(C)(C)C)CC2', 41.1),
  ('Cc1cc(C#N)cc(C)c1Oc1nc(Nc2ccc(C#N)cc2)nc2c1CCN(Cc1ccccn1)CC2', 5.98),
  ('Cc1cc(C#N)cc(C)c1Oc1nc(Nc2ccc(C#N)cc2)nc2c1CCN(C(=O)Cn1ccnc1)CC2', 0.0125),
  ('Cc1cc(/C=C/C(=O)O)cc(C)c1Oc1nc(Nc2ccc(C#N)cc2)nc2c1CCN(C(=O)OC(C)(C)C)CC2', 10700),
  ('Cc1cc(C#N)cc(C)c1Oc1nc(Nc2ccc(C#N)cc2)nc2c1CN(C(=O)[C@H](N)C(C)C)CC2', 12.1),
  ('Cc1cc(C#N)cc(C)c1Oc1nc(Nc2ccc(C#N)cc2)nc2c1CCN(C(=O)CCl)CC2', 10.5),
  ('CSCC[C@H](N)C(=O)N1CCc2nc(Nc3ccc(C#N)cc3)nc(Oc3c(C)cc(C#N)cc3C)c2C1', 0.909),
  ('Cc1cc(C#N)cc(C)c1Oc1nc(Nc2ccc(C#N)cc2)nc2c1CCN(C(=O)c1ccccn1)CC2', 0.062);

P = Cc1cc(C#N)cc(C)c1Oc1nc(Nc2ccc(C#N)cc2)nc2c1CCN(Cc1cccn1C)CC2
Q = COC(=O)N1CCc2nc(Nc3ccc(C#N)cc3)nc(Oc3c(C)cc(C#N)cc3C)c2CC1
[in] Returns the identifier with the smallest measured IC50 among P and Q . Lab note: record the label of whichever item you select.
[out] Q

a = Cc1cc(C#N)cc(C)c1Oc1nc(Nc2ccc(C#N)cc2)nc2c1CN(C(=O)C(Cc1cnn(C(=O)OC(C)(C)C)c1)NC(=O)OC(C)(C)C)CC2 (centres unmarked)
b = Cc1cc(C#N)cc(C)c1Oc1nc(Nc2ccc(C#N)cc2)nc2c1CN(C(=O)[C@H](CCCCNC(=O)OC(C)(C)C)NC(=O)OC(C)(C)C)CC2
[in] Of the two listed items, which has the higher IC50? First: a Second: b Lab note: record the label of whichever item you select.
[out] b
(b: 240 µM, a: 18.9 µM)

---

- Tested on: HIV-1 subtype A strain 12RU 69831
- Protocol Description: Inhibition of HIV-1 reproduction / protection of infected MT-4 cells (living cell concentration, p24 production)
- Assay type: cell-based
- Assay Context: Human immunodeficiency virus 1, MT4, MT-4 cells infected with HIV-1 at a constant virus dose of 300 CCID50; read-out: Activity against HIV-1 12RU 69831 strain (subtype A)
pIC50: −log10 of the molar value.
Result Type: pIC50

Below, each entry is followed by its recorded pIC50 result.
INSERT INTO assay_data (smiles_notation, system, result_type, measurement) VALUES
  ('Cc1cc(C#N)cc(C)c1Oc1nc(Nc2ccc(C#N)cc2)nc2c1CN(S(C)(=O)=O)CC2', 'HIV-1 subtype A strain 12RU 69831', 'pIC50', 6.84),
  ('C=CCN1CCc2nc(Nc3ccc(C#N)cc3)nc(Oc3c(C)cc(C#N)cc3C)c2CC1', 'HIV-1 subtype A strain 12RU 69831', 'pIC50', 5.79);

A = Cc1cc(C#N)cc(C)c1Oc1nc(Nc2ccc(C#N)cc2)nc2c1CCNCC2
B = Cc1cc(C#N)cc(C)c1Oc1nc(Nc2ccc(C#N)cc2)nc2c1CCN(C(=O)c1cccnc1)CC2
[in] Of the two listed items, which has the higher pIC50? First: A Second: B Lab note: record the label of whichever item you select.
[out] A

I = Cc1cc(C#N)cc(C)c1Oc1nc(Nc2ccc(C#N)cc2)nc2c1CN(Cc1ccccc1O)CC2
II = Cc1cc(C#N)cc(C)c1Oc1nc(Nc2ccc(C#N)cc2)nc2c1CN(C(=O)[C@@H](CO)NC(=O)OC(C)(C)C)CC2
[in] Of the two listed items, which has the higher pIC50? First: I Second: II Lab note: record the label of whichever item you select.
[out] I
(I: 4.56, II: 3.99)

---

- System: HIV-1 subtype A strain 12RU 69831
- Protocol Description: Inhibition of HIV-1 reproduction / protection of infected MT-4 cells (living cell concentration, p24 production)
- Format: cell-based
- Assay Context: Human immunodeficiency virus 1, MT4, MT-4 cells infected with HIV-1 at a constant virus dose of 300 CCID50; read-out: Activity against HIV-1 12RU 69831 strain (subtype A)
Result Type: IC50 (µM)

Below, each entry is followed by its recorded IC50 result.
INSERT INTO measurements (molecule, system, result_type, measurement) VALUES
  ('Cc1cc(C#N)cc(C)c1Oc1nc(Nc2ccc(C#N)cc2)nc2c1CCN(CCN1CCOCC1)CC2 [BB0274118]', 'HIV-1 subtype A strain 12RU 69831', 'IC50', 0.324),
  ('Cc1cc(C=O)cc(C)c1Oc1nc(Nc2ccc(C#N)cc2)nc2c1CCN(C(=O)OC(C)(C)C)CC2 [BB0273943]', 'HIV-1 subtype A strain 12RU 69831', 'IC50', 346),
  ('Cc1cc(C#N)cc(C)c1Oc1nc(Nc2ccc(C#N)cc2)nc2c1CCN(C(=O)Cn1ccnc1C)CC2 [BB0274236]', 'HIV-1 subtype A strain 12RU 69831', 'IC50', 0.0488),
  ('Cc1cccc(C)c1Oc1nc(Nc2ccc(C#N)cc2)nc2c1CCN(Cc1ccccc1)C2 [BB0273459]', 'HIV-1 subtype A strain 12RU 69831', 'IC50', 74.3);

1 = Cc1cc(C#N)cc(C)c1Oc1nc(Nc2ccc(C#N)cc2)nc2c1CN(C(=O)[C@@H](N)Cc1ccc(O)cc1)CC2 [BB0274125]
2 = Cc1cc(C#N)cc(C)c1Oc1nc(Nc2ccc(C#N)cc2)nc2c1CCN(Cc1ccncc1)CC2 [BB0274016]
[in] Of the two listed items, which has the higher IC50? First: 1 Second: 2 Lab note: record the label of whichever item you select.
[out] 2
(2: 4880 µM, 1: 82.1 µM)

1 = CCOC(=O)N1CCc2nc(Nc3ccc(C#N)cc3)nc(Oc3c(C)cc(C#N)cc3C)c2C1 [BB0273965]
2 = Cc1ccc(CN2CCc3nc(Nc4ccc(C#N)cc4)nc(Oc4c(C)cc(C#N)cc4C)c3CC2)o1 [BB0274073]
[in] Returns the identifier with the smallest measured IC50 among 1 and 2 . Lab note: record the label of whichever item you select.
[out] 1

I = Cc1cc(C#N)cc(C)c1Oc1nc(Nc2ccc(C#N)cc2)nc2c1CN(C(=O)CN1CC(O)C1)CC2 [BB0274052]
II = Cc1cc(C#N)cc(C)c1Oc1nc(Nc2ccc(C#N)cc2)nc2c1CN(C(=O)C(N)Cc1cn[nH]c1)CC2 (stereo not drawn) [BB0274121]
[in] Returns the identifier with the smallest measured IC50 among I and II . Lab note: record the label of whichever item you select.
[out] I
(I: 0.127 µM, II: 18.7 µM)

1 = Cc1cc(C#N)cc(C)c1Oc1nc(Nc2ccc(C#N)cc2)nc2c1CN(C(=O)[C@H](CC(C)C)NC(=O)OC(C)(C)C)CC2 [BB0274128]
2 = Cc1cc(C#N)cc(C)c1Oc1nc(Nc2ccc(C#N)cc2)nc2c1CN(C(=O)OC(C)(C)C)CC2 [BB0273961]
[in] Of the two listed items, which has the higher IC50? First: 1 Second: 2 Lab note: record the label of whichever item you select.
[out] 1

---

- System: HIV-1 subtype A strain 12RU 69831
- Protocol Description: Inhibition of HIV-1 reproduction / protection of infected MT-4 cells (living cell concentration, p24 production)
- Type: cell-based
- Assay Context: Human immunodeficiency virus 1, MT4, MT-4 cells infected with HIV-1 at a constant virus dose of 300 CCID50; read-out: Activity against HIV-1 12RU 69831 strain (subtype A)
Result Type: IC50 (µM)

Below, each entry is followed by its recorded IC50 result.
INSERT INTO measurements (compound, system, result_unit, measurement) VALUES
  ('Cc1cc(C#N)cc(C)c1Oc1nc(Nc2ccc(C#N)cc2)nc2c1CN(C(=O)C1CCCN1C(=O)OC(C)(C)C)CC2 (stereo not shown)', 'HIV-1 subtype A strain 12RU 69831', 'µM', 664),
  ('Cc1cc(C#N)cc(C)c1Oc1nc(Nc2ccc(C#N)cc2)nc2c1CN(C(=O)[C@H](Cc1ccc(O)cc1)NC(=O)OC(C)(C)C)CC2', 'HIV-1 subtype A strain 12RU 69831', 'µM', 342),
  ('Cc1cc(C#N)cc(C)c1Oc1nc(Nc2ccc(C#N)cc2)nc2c1CN(Cc1cccnc1)CC2', 'HIV-1 subtype A strain 12RU 69831', 'µM', 0.00676);

A = Cc1cc(C#N)cc(C)c1OC1=NC(Nc2ccc(C#N)cc2)=NC2CCN(C(=O)NC3CCOCC3)CC12 (stereo not shown)
B = Cc1cc(C#N)cc(C)c1Oc1nc(Nc2ccc(C#N)cc2)nc2c1CN(C(=O)[C@H](C)NC(=O)OC(C)(C)C)CC2
C = COC(=O)C(=O)N1CCc2nc(Nc3ccc(C#N)cc3)nc(Oc3c(C)cc(C=O)cc3C)c2CC1
[in] Arrange the 3 compounds from largest to smallest IC50. In plain terms: list the labels in the order you were asked to.
[out] A, C, B
(A: 205 µM, C: 34.8 µM, B: 8.8 µM)
